All values here come from patent US20140329863A1.

# Test system: PrP^Sc in dividing ScN2a-cl3 cells
# Type: cell-based, mouse
# assay setup: read-out: Antiprion activity ScN2a-cl3 EC50; ScN2a-cl3 cells
assay readout: EC50

Please provide the recorded EC50 for "Cc1ccc(Nc2nc(-c3cc(-c4ccccc4)no3)cs2)nc1" , tested on PrP^Sc in dividing ScN2a-cl3 cells.
940 nM

Could you do the same for "Cc1ccc(Nc2nc(-c3ccccc3)cs2)nc1" , please?
7880 nM

Could you do the same for "COc1ccc(-c2csc(Nc3ccc(C(F)(F)F)cn3)n2)cc1OC" , please?
2530 nM

Could you do the same for "Cc1ccc(Nc2nc(-c3c(-c4ccccc4)noc3C)cs2)nc1" , please?
> 26000 nM

Could you do the same for "COc1ccc(-c2csc(Nc3ccc4ccccc4n3)n2)cc1OC" , please?
430 nM

----------
# procedure summary: Multidose (three-day) pharmacokinetics in liquid diet in FVB mice
# assay setup: FVB, mouse, in vivo, 100 mg/kg/day, Brain concentrations, 3 days, FVB mice
assay readout: concentration at 3 days

For the compound shown here, C(=N\Nc1ccc(-c2cnco2)cc1)/c1ccncc1 [Compound B, reference compound] , give the reported concentration at 3 days.
~10 µM

----------
# procedure summary: in vitro
# assay setup: beagle, dog, plasma, pH 7.4
assay readout: fraction unbound at 4 h

For the compound shown here, Cc1ccnc(Nc2nc(-c3ccc(-c4ccccn4)s3)cs2)c1 [IND81] , give the reported fraction unbound at 4 h.
~0.57

----------
# procedure summary: in vitro
# assay setup: rat, microsomes, pH 7.4
assay readout: half-life at 1 μM

For the compound shown here, Cc1cccc(Nc2nc(-c3ccc(-c4ccccc4)cc3)cs2)n1 [IND24] , give the reported half-life at 1 μM.
> 1 h

----------
# procedure summary: physchem
# assay setup: cell culture media, plasma or biological fluid
assay readout: solubility (µM)
Report only the number, with the unit µM understood.

For the compound shown here, "COc1ccc(-c2csc(Nc3ccc4ccccc4n3)n2)cc1OC" , give the reported solubility.
52

Could you do the same for "Cc1cccc(Nc2nc(-c3cc4ccccc4o3)cs2)n1" , please?
20

Could you do the same for "COc1ccc(Nc2nc(-c3ccc(OC)c(OC)c3)cs2)nc1" , please?
3

Could you do the same for "c1ccc2cc(Nc3nc(-c4ccncc4)cs3)ncc2c1" , please?
116

Could you do the same for "Cc1ccnc(Nc2nc(-c3ccc(-c4ccccn4)s3)cs2)c1" , please?
207

Could you do the same for "c1ccc2cc(Nc3nc(-c4cc5ccccc5o4)cs3)ncc2c1" , please?
151

Could you do the same for "Cc1ccc(Nc2nc(-c3cc(-c4ccccc4)no3)cs2)nc1" , please?
225

Could you do the same for "Cc1ccnc(Nc2nc(-c3ccncc3)cs2)c1" , please?
76

Could you do the same for "COc1ccc(-c2csc(Nc3cc4ccccc4cn3)n2)cc1OC" , please?
174

----------
# Tested on: PrP^Sc in dividing ScN2a-cl3 cells
# Assay type: cell-based, mouse
# Design: unit not given here
# assay setup: ScN2a-cl3 dividing cells; 3rd determination
Field: Dividing ELISA pEC50 (μM) 3rd Expt.. Provide a value for each of the compounds that follow.
Number only, please.

For the compound shown here, "COc1cc2c(cc1OC)-c1nc(Nc3ccc(C)cn3)sc1C2" , give the reported Dividing ELISA pEC50 (μM) 3rd Expt..
5.13

Could you do the same for "COc1ccc(-c2csc(Nc3ccccc3)n2)cc1OC" , please?
5.35

Could you do the same for "COc1ccc(-c2csc(Nc3ncccn3)n2)cc1OC" , please?
5.73

Could you do the same for "COc1ccc(-c2csc(Nc3cccc(C)n3)n2)cc1OC" , please?
5.65

Could you do the same for "Cc1ccc(Nc2nc3c(s2)Cc2ccccc2-3)nc1" , please?
5.63

Could you do the same for "COc1ccc(-c2csc(Nc3ccc(C(F)(F)F)cn3)n2)cc1OC" , please?
5.58

Could you do the same for "Cc1ccc(Nc2nc(-c3ccncc3)cs2)nc1" , please?
5.73

Could you do the same for "c1ccc2cc(Nc3nc(-c4ccncc4)cs3)ncc2c1" , please?
6.42

Could you do the same for "COc1ccc(-c2csc(NC(=O)c3cc4ccccc4cn3)n2)cc1OC" , please?
4.97

Could you do the same for "COc1ccc(-c2csc(Nc3ccc4ccccc4n3)n2)cc1OC" , please?
6.34

Could you do the same for "c1ccc(-c2ccc(-c3csc(Nc4cc5ccccc5cn4)n3)s2)nc1" , please?
5.67

Could you do the same for "COc1ccc(-c2csc(Nc3ncccc3C)n2)cc1OC" , please?
5.17

Could you do the same for "COc1ccnc(Nc2nc(-c3cc(-c4ccccc4)no3)cs2)c1" , please?
6.66

Could you do the same for "COc1ccc(-c2csc(Nc3ccncc3)n2)cc1OC" , please?
4.57

Could you do the same for "COc1ccccc1-c1csc(Nc2ccc(C)cn2)n1" , please?
4.52

Could you do the same for "COc1ccc(Nc2nc(-c3cc(-c4ccccc4)no3)cs2)nc1" , please?
6.74

Could you do the same for "COc1ccc(NC(=O)c2csc(Nc3ccc(C)cn3)n2)cc1OC" , please?
5.66

Could you do the same for "FC(F)(F)c1csc(Nc2cc3ccccc3cn2)n1" , please?
5.01

Could you do the same for "COc1ccc(-c2csc(Nc3cnccn3)n2)cc1OC" , please?
4.93

Could you do the same for "Cc1ccc(Nc2nc(-c3ccccc3)cs2)nc1" , please?
5.24

Could you do the same for "COc1ccc(-c2csc(Nc3cc(C)ccn3)n2)cc1OC" , please?
5.95

Could you do the same for "Cc1ccc(Nc2nc(-c3ccc(-c4ccccn4)s3)cs2)nc1" , please?
5.91

Could you do the same for "c1ccc(-c2csc(Nc3cc4ccccc4cn3)n2)cc1" , please?
5.37

Could you do the same for "c1ccc(-c2cc(-c3csc(Nc4cc5ccccc5cn4)n3)on2)cc1" , please?
6.18

Could you do the same for "Cc1cccc(Nc2nc(-c3cc(-c4ccccc4)no3)cs2)n1" , please?
6.10

Could you do the same for "c1ccc(-c2cc(-c3csc(Nc4ccccn4)n3)on2)cc1" , please?
6.23

Could you do the same for "COc1ccc(-c2csc(Nc3ccc4ccccc4c3)n2)cc1OC" , please?
6.38

Could you do the same for "COc1ccc(-c2csc(N(C)c3cc4ccccc4cn3)n2)cc1OC" , please?
7.08

Could you do the same for "COc1ccc(-c2csc(Nc3cccnc3)n2)cc1OC" , please?
5.96

Could you do the same for "COc1ccc(-c2csc(Nc3cc4ccccc4cn3)n2)cc1" , please?
6.38

Could you do the same for "COc1ccc(-c2csc(N(C(C)=O)c3cc4ccccc4cn3)n2)cc1OC" , please?
7.19

Could you do the same for "c1ccc(-c2cc(-c3csc(Nc4ccncc4)n3)on2)cc1" , please?
5.17

Could you do the same for "Cc1ccnc(Nc2nc(-c3cc(-c4ccccc4)no3)cs2)c1" , please?
5.78

Could you do the same for "COc1ccc(-c2csc(Nc3ccc(C)cn3)n2)cc1" , please?
5.66

Could you do the same for "Cc1ccc(Nc2nc(-c3cc(-c4ccccc4)no3)cs2)nc1" , please?
6.00

----------
Field: Hepatic Extraction Ratio Rat. Provide a value for each of the compounds that follow.
# procedure summary: Hepatic microsomal stability, rat
# assay setup: rat microsomes
Number only, please.

For the compound shown here, "Cc1cccc(Nc2nc(-c3cc4ccccc4o3)cs2)n1" , give the reported Hepatic Extraction Ratio Rat.
0.4

Could you do the same for "COc1ccc(-c2csc(Nc3ccc4ccccc4n3)n2)cc1OC" , please?
0.5

Could you do the same for "c1ccc2cc(Nc3nc(-c4ccncc4)cs3)ncc2c1" , please?
0.8

Could you do the same for "Cc1ccc(Nc2nc(-c3cc(-c4ccccc4)no3)cs2)nc1" , please?
0.3

Could you do the same for "Cc1ccnc(Nc2nc(-c3ccncc3)cs2)c1" , please?
0.8

----------
# procedure summary: Hepatic microsomal stability, human
# assay setup: human liver microsomes, 60-min incubation
assay readout: % remaining after a 60-min incubation, Human (%)
Report only the number, with the unit % understood.

For the compound shown here, "COc1ccc(-c2csc(Nc3ccc4ccccc4n3)n2)cc1OC" , give the reported % remaining after a 60-min incubation, Human.
113

Could you do the same for C(=N\Nc1ccc(-c2cnco2)cc1)/c1ccncc1 [Compound B, reference compound] , please?
68

Could you do the same for "c1ccc2cc(Nc3nc(-c4ccncc4)cs3)ncc2c1" , please?
66

Could you do the same for "COc1ccc(Nc2nc(-c3ccc(OC)c(OC)c3)cs2)nc1" , please?
48

Could you do the same for "Cc1ccnc(Nc2nc(-c3ccc(-c4ccccn4)s3)cs2)c1" , please?
48

Could you do the same for "Cc1cccc(Nc2nc(-c3cc4ccccc4o3)cs2)n1" , please?
99

Could you do the same for "Cc1cccc(Nc2nc(-c3ccc(-c4ccccc4)cc3)cs2)n1" , please?
105

Could you do the same for "Cc1ccc(Nc2nc(-c3cc(-c4ccccc4)no3)cs2)nc1" , please?
42

Could you do the same for "COc1ccc(-c2csc(Nc3cc4ccccc4cn3)n2)cc1OC" , please?
83

Could you do the same for "Cc1ccnc(Nc2nc(-c3ccncc3)cs2)c1" , please?
30
